Hey, just so you know, these numbers are from paper PMC10816986.

- Tested on: m3C substrate
- ASSAY: Equilibrium fluorescence titration with methylated DNA
- Assay type: binding
- RUN PARAMETERS: ratio of Kd for m3C substrate
- Text: To investigate the impact of selected mutations on ALKBH3’s ability to bind its cofactor, co-substrate, and methylated DNA, the fluorescent titration method was employed. It is well-established that enzyme–ligand binding typically leads to a protein conformational change, which in turn can alter the fluorescence intensity of tryptophan and tyrosine residues within the protein sequence. […]
MEASUREMENT TYPE: weakening of contacts with the DNA substrate relative to wt

### Prompt // lookup weakening of contacts with the DNA substrate relative to wt for L177A ALKBH3: ALKBH3 mutant, Leu177 replaced with Ala (protein, UniProt Q96Q83 1-286, looked up, variant L177A) Alpha-ketoglutarate-dependent …: MEEKRRRARVQGAWAAPVKSQAIAQPATTAKSHLHQKPGQTWKNKEHHLSDREFVFKEPQQVVRRAPEPRVIDREGVYEISLSPTGVSRVCLYPGFVDVKEADWILEQLCQDVPWKQRTGIREDITYQQPRLTAWYGELPYTYSRITMEPNPHWHPVLRTLKNRIEENTGHTFNSLACNLYRNEKDSVDWHSDDEPSLGRCPIIASLSFGATRTFEMRKKPPPEENGDYTYVERVKIPLDHGTLLIMEGATQADWQHRVPKEYHSREPRVNLTFRTVYPDPRGAPW
### Response ~2 fold
